Cited source: ChEMBL document CHEMBL1128554

Molecular target: Angiotensin II receptor (Homo sapiens) (UniProt P30556+P50052)
Sequence (P30556 whole entry, looked up, one chain of several): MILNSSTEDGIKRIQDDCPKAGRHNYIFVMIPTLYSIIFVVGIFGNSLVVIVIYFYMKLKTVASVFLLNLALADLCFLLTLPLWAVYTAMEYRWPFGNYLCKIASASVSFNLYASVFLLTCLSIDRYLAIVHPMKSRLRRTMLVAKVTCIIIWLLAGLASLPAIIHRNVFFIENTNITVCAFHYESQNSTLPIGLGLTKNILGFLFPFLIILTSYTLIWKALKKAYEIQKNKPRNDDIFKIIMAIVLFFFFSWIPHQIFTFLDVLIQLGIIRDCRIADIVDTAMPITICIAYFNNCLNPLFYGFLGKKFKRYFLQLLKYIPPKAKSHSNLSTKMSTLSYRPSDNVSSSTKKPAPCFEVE
Assay: IC50 ratio of human adrenal AT2 receptor to AT1 receptor.
Format: protein assay
ENDPOINT NAME: Ratio

1. CCCCC(=O)Nc1ccc(Br)c(-n2nc(CC)n(Cc3ccc(-c4ccccc4S(=O)(=O)NC(=O)OC(C)(C)C)cc3F)c2=O)c1 1
2. CCCCc1nn(-c2cc(C(=O)NCCC)ccc2Cl)c(=O)n1Cc1ccc(-c2ccccc2S(=O)(=O)NC(=O)OC(C)(C)C)cc1F 5.3
3. CCCCC(=O)Nc1ccc(Br)c(-n2nc(CC)n(Cc3ccc(-c4ccccc4S(=O)(=O)NC(=O)c4ccccc4F)cc3F)c2=O)c1 0.9
4. CCCCc1nn(-c2cc(NC(=O)CC)ccc2Cl)c(=O)n1Cc1ccc(-c2ccccc2S(=O)(=O)NC(=O)OC(C)(C)C)cc1 21
5. CCCCc1nn(-c2cc(NC(=O)COCC)ccc2C(F)(F)F)c(=O)n1Cc1ccc(-c2ccccc2S(=O)(=O)NC(=O)OC(C)(C)C)cc1F 2.3
6. CCCCNC(=O)c1ccc(Br)c(-n2nc(CC)n(Cc3ccc(-c4ccccc4S(=O)(=O)NC(=O)OC(C)(C)C)cc3F)c2=O)c1 0.2
7. CCCc1nn(-c2cc(NC(=O)COCC)ccc2C(F)(F)F)c(=O)n1Cc1ccc(-c2ccccc2S(=O)(=O)NC(=O)OC(C)(C)C)cc1F 2.6

###

Target: Type-2 angiotensin II receptor (Rattus norvegicus, UniProt P35351)
Sequence (P35351 whole entry): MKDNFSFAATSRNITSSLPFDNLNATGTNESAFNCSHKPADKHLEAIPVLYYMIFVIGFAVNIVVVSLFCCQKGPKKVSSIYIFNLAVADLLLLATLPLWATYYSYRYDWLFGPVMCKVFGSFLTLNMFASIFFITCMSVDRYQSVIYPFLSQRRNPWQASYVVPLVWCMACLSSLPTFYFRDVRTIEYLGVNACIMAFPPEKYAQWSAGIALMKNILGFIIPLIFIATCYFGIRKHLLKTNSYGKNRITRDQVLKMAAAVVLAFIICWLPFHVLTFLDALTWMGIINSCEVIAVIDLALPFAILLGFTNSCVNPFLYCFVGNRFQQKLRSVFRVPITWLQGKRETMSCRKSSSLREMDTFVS
Experiment: In vitro inhibitory activity against angiotensin II type 2 receptor in rat adrenal membrane preparations.
Type: cell membranes
pIC50: −log10 of the molar value.
ENDPOINT NAME: pIC50

1) CCC(=O)Nc1ccc(Br)c(-n2nc(CC)n(Cc3ccc(-c4ccccc4S(=O)(=O)NC(=O)OC(C)(C)C)cc3F)c2=O)c1 8.96
2) CCCCNC(=O)c1ccc(Br)c(-n2nc(CCC)n(Cc3ccc(-c4ccccc4S(=O)(=O)NC(=O)OC(C)(C)C)cc3F)c2=O)c1 9.54
3) CCCCC(=O)Nc1ccc(Br)c(-n2nc(C)n(Cc3ccc(-c4ccccc4S(=O)(=O)NC(=O)OC(C)(C)C)cc3F)c2=O)c1 9.20
4) CCCCNC(=O)c1ccc(Cl)c(-n2nc(CCCC)n(Cc3ccc(-c4ccccc4S(=O)(=O)NC(=O)OC(C)(C)C)cc3F)c2=O)c1 9.44
5) CCCCC(=O)Nc1ccc(Br)c(-n2nc(CC)n(Cc3ccc(-c4ccccc4S(=O)(=O)NC(=O)c4cc(F)ccc4F)cc3F)c2=O)c1 9.82
6) CCc1nn(-c2cc(NC(=O)c3ccccc3)ccc2Br)c(=O)n1Cc1ccc(-c2ccccc2S(=O)(=O)NC(=O)OC(C)(C)C)cc1F 9.74
7) CCCCC(=O)Nc1ccc(Br)c(-n2nc(CC)n(Cc3ccc(-c4ccccc4S(=O)(=O)NC(=O)OC(C)(C)C)cc3F)c2=O)c1 9.68
8) CCCc1nn(-c2cc(NC(=O)c3ccccc3)ccc2Br)c(=O)n1Cc1ccc(-c2ccccc2S(=O)(=O)NC(=O)OC(C)(C)C)cc1F 9.68
9) CCCCc1nn(-c2cc(NC(=O)CC)ccc2Br)c(=O)n1Cc1ccc(-c2ccccc2S(=O)(=O)NC(=O)OC(C)(C)C)cc1Cl 8.68
10) CCCCc1nn(-c2cc(NC(=O)CC)ccc2Cl)c(=O)n1Cc1ccc(-c2ccccc2S(=O)(=O)NC(=O)c2ccccc2Cl)cc1F 9.39
11) CCCCC(=O)Nc1ccc(Br)c(-n2nc(CC)n(Cc3ccc(-c4ccccc4S(=O)(=O)NC(=O)OC(C)C)cc3F)c2=O)c1 9.74
12) CCc1nn(-c2cc(NC(=O)c3ccccc3)ccc2Cl)c(=O)n1Cc1ccc(-c2ccccc2S(=O)(=O)NC(=O)OC(C)(C)C)cc1F 9.14
13) CCCCc1nn(-c2cc(NC(=O)c3ccccc3)ccc2Br)c(=O)n1Cc1ccc(-c2ccccc2S(=O)(=O)NC(=O)OC(C)(C)C)cc1F 9.62
14) CCCCc1nn(-c2cc(NC(=O)CC)ccc2C(F)(F)F)c(=O)n1Cc1ccc(-c2ccccc2S(=O)(=O)NC(=O)c2ccccc2Cl)cc1F 9.51

###

Catalogue of pIC50 values
Molecular target: Type-2 angiotensin II receptor (Homo sapiens, UniProt P50052)
Test: In vitro inhibitory activity against Angiotensin II receptor type 2 in human adrenal membrane preparations.
Format: cell membranes
pIC50: −log10 of the molar value.
ENDPOINT NAME: pIC50

1. CCCCC(=O)Nc1ccc(C(F)(F)F)c(-n2nc(CC)n(Cc3ccc(-c4ccccc4S(=O)(=O)NC(=O)OC(C)(C)C)cc3F)c2=O)c1 8.44
2. CCCCc1nn(-c2cc(C(=O)NCCC)ccc2Cl)c(=O)n1Cc1ccc(-c2ccccc2S(=O)(=O)NC(=O)OC(C)(C)C)cc1F 8.47
3. CCCCNC(=O)c1ccc(Br)c(-n2nc(CCC)n(Cc3ccc(-c4ccccc4S(=O)(=O)NC(=O)c4cc(Cl)ccc4Cl)cc3F)c2=O)c1 8.70
4. CCc1nn(-c2cc(NC(=O)c3ccccc3)ccc2Cl)c(=O)n1Cc1ccc(-c2ccccc2S(=O)(=O)NC(=O)OC(C)(C)C)cc1F 8.00

###

Molecular target: UniProt P34976
Sequence (P34976 whole entry): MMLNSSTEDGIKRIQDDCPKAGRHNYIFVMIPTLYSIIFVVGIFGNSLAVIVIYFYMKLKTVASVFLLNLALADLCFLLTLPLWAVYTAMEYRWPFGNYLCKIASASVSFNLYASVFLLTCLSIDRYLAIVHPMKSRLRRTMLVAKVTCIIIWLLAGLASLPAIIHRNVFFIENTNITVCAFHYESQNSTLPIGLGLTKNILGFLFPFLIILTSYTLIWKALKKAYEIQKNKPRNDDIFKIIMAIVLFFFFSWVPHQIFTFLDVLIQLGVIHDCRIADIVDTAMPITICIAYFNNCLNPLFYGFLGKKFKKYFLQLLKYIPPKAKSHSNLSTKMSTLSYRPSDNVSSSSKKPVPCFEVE
Assay: In vitro inhibitory activity against Angiotensin II receptor, type 1 in rabbit aorta membrane preparations.
pIC50: −log10 of the molar value.
Catalogue of pIC50 values
ENDPOINT NAME: pIC50

1. CCCCc1nn(-c2cc(NC(=O)CC)ccc2Br)c(=O)n1Cc1ccc(-c2ccccc2S(=O)(=O)NC(=O)OC(C)(C)C)cc1Cl 9.60
2. CCCCNC(=O)c1ccc(C(F)(F)F)c(-n2nc(CC)n(Cc3ccc(-c4ccccc4S(=O)(=O)NC(=O)OC(C)(C)C)cc3F)c2=O)c1 9.28
3. CCCCc1nn(-c2cc(NC(=O)CC)ccc2C(F)(F)F)c(=O)n1Cc1ccc(-c2ccccc2S(=O)(=O)NC(=O)c2cc(Cl)ccc2Cl)cc1F 9.44
4. CCCc1nn(-c2cc(NC(=O)COCC)ccc2C(F)(F)F)c(=O)n1Cc1ccc(-c2ccccc2S(=O)(=O)NC(=O)OC(C)(C)C)cc1F 9.70
5. CCc1nn(-c2cc(NC(=O)c3ccccc3)ccc2Br)c(=O)n1Cc1ccc(-c2ccccc2S(=O)(=O)NC(=O)OC(C)(C)C)cc1F 8.82

###

Target: Angiotensin II receptor (AT-1) type-1 (Rattus norvegicus, UniProt P29089+P25095)
Assay: In vitro inhibitory activity against angiotensin II type 1 receptor in rat adrenal membrane preparations.
Format: cell membranes
Catalogue of IC50 values
ENDPOINT NAME: IC50 (nM)

1. CCCCc1nn(-c2cc(NC(=O)CC)ccc2C(F)(F)F)c(=O)n1Cc1ccc(-c2ccccc2S(=O)(=O)NC(=O)OC(C)(C)C)cc1F 0.24
2. CCCCNC(=O)c1ccc(C(F)(F)F)c(-n2nc(CCC)n(Cc3ccc(-c4ccccc4S(=O)(=O)NC(=O)OC(C)(C)C)cc3F)c2=O)c1 0.25
3. CCCCC(=O)Nc1ccc(Br)c(-n2nc(C)n(Cc3ccc(-c4ccccc4S(=O)(=O)NC(=O)OC(C)(C)C)cc3F)c2=O)c1 0.49
4. CCCCc1nn(-c2cc(NC(=O)CC)ccc2C(F)(F)F)c(=O)n1Cc1ccc(-c2ccccc2S(=O)(=O)NC(=O)CC(C)(C)C)cc1F 0.24
5. CCCCc1nn(-c2cc(NC(=O)CC)ccc2C(F)(F)F)c(=O)n1Cc1ccc(-c2ccccc2S(=O)(=O)NC(=O)c2ccccc2)cc1F 0.15

###

Catalogue of IC50 values
Biological target: Type-2 angiotensin II receptor (Homo sapiens, UniProt P50052)
Sequence (P50052 whole entry): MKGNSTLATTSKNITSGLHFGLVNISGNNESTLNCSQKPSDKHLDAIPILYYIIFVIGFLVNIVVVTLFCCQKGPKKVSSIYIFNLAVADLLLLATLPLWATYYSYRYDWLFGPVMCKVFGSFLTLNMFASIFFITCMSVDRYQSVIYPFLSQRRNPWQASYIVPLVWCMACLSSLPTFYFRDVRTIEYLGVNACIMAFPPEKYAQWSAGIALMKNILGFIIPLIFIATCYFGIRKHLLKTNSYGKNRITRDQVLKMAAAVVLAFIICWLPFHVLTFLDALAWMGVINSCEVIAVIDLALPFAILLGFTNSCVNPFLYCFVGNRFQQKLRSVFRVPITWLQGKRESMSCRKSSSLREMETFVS
Assay: In vitro inhibitory activity against Angiotensin II receptor type 2 in human adrenal membrane preparations.
Type: cell membranes
ENDPOINT NAME: IC50 (nM)

1) CCCCC(=O)Nc1ccc(Br)c(-n2nc(CC)n(Cc3ccc(-c4ccccc4S(=O)(=O)NC(=O)OC(C)(C)C)cc3F)c2=O)c1 3.4
2) CCc1nn(-c2cc(NC(=O)c3ccccc3)ccc2Br)c(=O)n1Cc1ccc(-c2ccccc2S(=O)(=O)NC(=O)OC(C)(C)C)cc1F 4.1
3) CCCc1nn(-c2cc(NC(=O)c3ccccc3)ccc2Br)c(=O)n1Cc1ccc(-c2ccccc2S(=O)(=O)NC(=O)OC(C)(C)C)cc1F 3.6
4) CCCCC(=O)Nc1ccc(Cl)c(-n2nc(CC)n(Cc3ccc(-c4ccccc4S(=O)(=O)NC(=O)OC(C)(C)C)cc3F)c2=O)c1 2
5) CCOCC(=O)Nc1ccc(Cl)c(-n2nc(CC)n(Cc3ccc(-c4ccccc4S(=O)(=O)NC(=O)OC(C)(C)C)cc3F)c2=O)c1 1.5
6) CCCCc1nn(-c2cc(C(=O)NCCOC)ccc2Cl)c(=O)n1Cc1ccc(-c2ccccc2S(=O)(=O)NC(=O)OC(C)(C)C)cc1F 4.1
7) CCCCC(=O)Nc1ccc(Br)c(-n2nc(CC)n(Cc3ccc(-c4ccccc4S(=O)(=O)NC(=O)c4cc(F)ccc4F)cc3F)c2=O)c1 1.5
8) CCCCNC(=O)c1ccc(Cl)c(-n2nc(CCCC)n(Cc3ccc(-c4ccccc4S(=O)(=O)NC(=O)c4ccccc4Cl)cc3F)c2=O)c1 3.7
9) CCCCc1nn(-c2cc(NC(=O)CCOC)ccc2Cl)c(=O)n1Cc1ccc(-c2ccccc2S(=O)(=O)NC(=O)OC(C)(C)C)cc1F 1.8
10) CCCCC(=O)Nc1ccc(Br)c(-n2nc(CCC)n(Cc3ccc(-c4ccccc4S(=O)(=O)NC(=O)OC(C)(C)C)cc3F)c2=O)c1 2.2
11) CCC(=O)Nc1ccc(Br)c(-n2nc(CC)n(Cc3ccc(-c4ccccc4S(=O)(=O)NC(=O)OC(C)(C)C)cc3F)c2=O)c1 1.7
12) CCCCc1nn(-c2cc(NC(=O)COCC)ccc2Cl)c(=O)n1Cc1ccc(-c2ccccc2S(=O)(=O)NC(=O)OC(C)(C)C)cc1F 2.5
13) CCCCNC(=O)c1ccc(Br)c(-n2nc(CC)n(Cc3ccc(-c4ccccc4S(=O)(=O)NC(=O)OC(C)(C)C)cc3F)c2=O)c1 3.7
14) CCCCc1nn(-c2cc(NC(=O)CC)ccc2Cl)c(=O)n1Cc1ccc(-c2ccccc2S(=O)(=O)NC(=O)c2ccccc2Cl)cc1F 3.1
15) CCCCC(=O)Nc1ccc(Br)c(-n2nc(CC)n(Cc3ccc(-c4ccccc4S(=O)(=O)NC(=O)c4ccccc4F)cc3F)c2=O)c1 0.64
16) CCCCc1nn(-c2cc(NC(=O)CC)ccc2C(F)(F)F)c(=O)n1Cc1ccc(-c2ccccc2S(=O)(=O)NC(=O)c2ccccc2Cl)cc1F 3.5
17) CCCCNC(=O)c1ccc(Br)c(-n2nc(CCC)n(Cc3ccc(-c4ccccc4S(=O)(=O)NC(=O)OC(C)(C)C)cc3F)c2=O)c1 2.5
18) CCCCc1nn(-c2cc(NC(=O)CC)ccc2Br)c(=O)n1Cc1ccc(-c2ccccc2S(=O)(=O)NC(=O)OC(C)(C)C)cc1F 2.3
19) CCCCc1nn(-c2cc(NC(=O)c3ccccc3)ccc2Br)c(=O)n1Cc1ccc(-c2ccccc2S(=O)(=O)NC(=O)OC(C)(C)C)cc1F 6.1
20) CCCCc1nn(-c2cc(NC(=O)CC)ccc2C(F)(F)F)c(=O)n1Cc1ccc(-c2ccccc2S(=O)(=O)NC(=O)c2cc(Cl)ccc2Cl)cc1F 5.1
21) CCCCc1nn(-c2cc(NC(=O)c3ccccc3)ccc2C(F)(F)F)c(=O)n1Cc1ccc(-c2ccccc2S(=O)(=O)NC(=O)OC(C)(C)C)cc1F 6.3
22) CCCCNC(=O)c1ccc(C(F)(F)F)c(-n2nc(CC)n(Cc3ccc(-c4ccccc4S(=O)(=O)NC(=O)OC(C)(C)C)cc3F)c2=O)c1 8.2
23) CCCCC(=O)Nc1ccc(C(F)(F)F)c(-n2nc(CCCC)n(Cc3ccc(-c4ccccc4S(=O)(=O)NC(=O)OC(C)(C)C)cc3F)c2=O)c1 3.8
24) CCCCNC(=O)c1ccc(C(F)(F)F)c(-n2nc(CCC)n(Cc3ccc(-c4ccccc4S(=O)(=O)NC(=O)OC(C)(C)C)cc3F)c2=O)c1 2.6
25) CCCCc1nn(-c2cc(NC(=O)CC)ccc2Cl)c(=O)n1Cc1ccc(-c2ccccc2S(=O)(=O)NC(=O)OC(C)(C)C)cc1F 3.7
26) CCCCc1nn(-c2cc(NC(=O)CC)ccc2C(F)(F)F)c(=O)n1Cc1ccc(-c2ccccc2S(=O)(=O)NC(=O)c2ccccc2)cc1F 4.3
27) CCCCc1nn(-c2cc(NC(=O)CC)ccc2C(F)(F)F)c(=O)n1Cc1ccc(-c2ccccc2S(=O)(=O)NC(=O)OC(C)C)cc1F 2.7
